The reported measurements were obtained from paper PMC10397247.

- assayed.target: T1, P5SC2
- T1 chain: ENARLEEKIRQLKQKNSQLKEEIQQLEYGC
- assay.protocol: two-hybrid library CC1;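 also: natural log of median RNA to DNA barcode read ratio; higher means stronger binding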
- assay.context: mean of both orientations
readout.kind: interaction score
Answer field: number only, no words.

Data point: KNAQLKEENAALEEKIQQLKEKIQALKYG [P10] ; interaction score = -2.77

// interaction score lookup, binder = KISQLKQKIQQLKQENQQLEEENSQLEYG [P4mS] , result: -2.82

interaction score in this record for EIQQLEEEISQLEQKNSQLKEKNQQLKYG [P3mS] : -2.78

The recorded interaction score for entry SPEDEIQQLEEEIAQLEQKNAALKEKNQALKYG [P3] equals -2.4

Form: binder = KNAQLKEKIAALKEKIQQLKEENQALEYG [P12] ; interaction score = -2.9
